This collection of values is drawn from patent US20030186281A1.

- Test system: tet operator sequence
- test method notes: β-galactosidase activity of a tetracycline-regulated promoter in transformed E. coli with revTetR, in the presence and absence of anhydrotetracycline (atc)
- Assay type: cell-based, Escherichia coli
- assay context: RevTetR isolate cultured in the presence of anhydrotetracycline (ATC)
attribute measured: β-Galactosidase Activity, Cultured With ATC

INSERT INTO assay_data (molecule, reported_result) VALUES
  ('TetRrev96/99-19: revTetR(BD) G96R V99S (protein, Modified tetracycline repressor, revTetR(BD) G96R V99S) MSRLDKSKVINSALELLNEVGIEGLTTRKLAQKLGVEQPTLYWHVKNKRALLDALAVEILARHHDYSLPAAGESWQSFLRNNAMSFRRALLRYRDRAKSHLGTRPDEKQYDTVETQLRFMTENGFSLRDGLYAISAVSHFTLGAVLEQQEHTAALTDRPAAPDENLPPLLREALQIMDSDDGEQAFLHGLESLIRGFEVQLTALLQIV', 7.4009);
